Data provenance is ChEMBL document CHEMBL1201862.

Target entity: Sentrin-specific protease 8 (Homo sapiens, UniProt Q96LD8);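 note: luminescence read-out of SENP8 inhibition, dose-response confirmation following an ultra-high-throughput screen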
Sequence (Q96LD8 whole entry): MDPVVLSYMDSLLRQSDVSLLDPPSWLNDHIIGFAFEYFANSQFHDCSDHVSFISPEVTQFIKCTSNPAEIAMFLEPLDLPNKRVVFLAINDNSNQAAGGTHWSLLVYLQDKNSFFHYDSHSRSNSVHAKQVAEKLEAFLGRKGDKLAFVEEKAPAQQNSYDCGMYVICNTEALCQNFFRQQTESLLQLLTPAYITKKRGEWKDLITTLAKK
Assay type: functional
Activity calls are given as the source filed them.
The entries below are paired with their reported IC50.

Below, each entry is followed by its recorded IC50 result.
smiles_string=Cc1nc(Nc2ccc(C(=O)O)cc2)sc1-c1ccccc1 value_observed="1.88 µM (active)"
smiles_string=COc1cc(OC)cc(C(=O)Nc2ccc(Nc3ccccc3)cc2)c1 value_observed="22.5 µM (active)"
smiles_string=CCN(CC)c1ccc(Nc2nc(-c3cccnc3)cs2)cc1 value_observed="26.7 µM (active)"

The reported IC50 of the compound O=C1/C(=C/c2cccc(F)c2)Oc2cc(O)ccc21 was 2.29 µM (active)

The reported IC50 of the compound CCOc1ccc2nc(NC(=O)Cc3cccs3)sc2c1 was 16.2 µM (active)

The reported IC50 of the compound CC(=O)N(/N=C1\Sc2ccccc2C1=O)c1ccccc1C was 3.46 µM (active)
